Origin of values: patent US20110039762A1

- Tested on: MRSA
- Protocol Notes: Kill or inhibit growth/proliferation; morphology, biofilm and growth disruption (Tables 5, 6); note: test concentration or dose not given here
- Format: cell-based, Methicillin-resistant Staphylococcus aureus
- Set-up: key: A: Peptide aggregates; B: Less hyphal formation; Clumps; Diffuse clumps and small polyps; F: Diffuse growth; H: Thin; I: Growth inhibition; Microcolony formation; Rippled; Small polyps; Thick; W: Halo formation on top, microlonies on bottom

Substance | Organism, effect
PF-622: peptide having multiple activities (TREDVFSVRLINNIVNKQA; Peptide with targeting and/or antimicrobial activity) | MRSA (D)
PF-046: peptide having multiple activities (chain 1 LDFYLTKHLTLML; chain 2 LDFYLTKHLTLML; Peptide with targeting and/or antimicrobial activity) | MRSA (R)
PF-001: peptide having multiple activities (chain 1 MNNWIIVAQLSVTVINEIIDIMKEKQKGGK; chain 2 MNNWIIVAQLSVTVINEIIDIMKEKQKGGK; Peptide with targeting and/or antimicrobial activity) | MRSA (R)
PF-599: peptide having multiple activities (LFEIFKPKH; Peptide with targeting and/or antimicrobial activity) | MRSA (C)
PF-042: peptide having multiple activities (chain 1 LLLSYFRYTGALLQSLF; chain 2 LLLSYFRYTGALLQSLF; Peptide with targeting and/or antimicrobial activity) | MRSA (R)
PF-544: peptide having multiple activities (chain 1 FGEKQMRSWWKVHWFHP; chain 2 FGEKQMRSWWKVHWFHP; Peptide with targeting and/or antimicrobial activity) | MRSA (D)
PF-426: peptide having multiple activities (MLQKYTQMISVTKCIITKNKKTQENVDAYN; Peptide with targeting and/or antimicrobial activity) | MRSA (D)
PF-598: peptide having multiple activities (MKFMLEVRNKAISAYKEITRTQI; Peptide with targeting and/or antimicrobial activity) | MRSA (D)
PF-447: peptide having multiple activities (chain 1 IDKSRNKDQFSHIFGLYNICSG; chain 2 IDKSRNKDQFSHIFGLYNICSG; Peptide with targeting and/or antimicrobial activity) | MRSA (C)
HCVIGNVVDIANLLKRRAVYRDIADVIKMR [PF-071] | MRSA (C)
PF-362: peptide having multiple activities (chain 1 NIERILKEKVWMIRCVE; chain 2 NIERILKEKVWMIRCVE; Peptide with targeting and/or antimicrobial activity) | MRSA (C)
PF-518: peptide having multiple activities (chain 1 SFYSKYSRYIDNLAGAIFLFF; chain 2 SFYSKYSRYIDNLAGAIFLFF; Peptide with targeting and/or antimicrobial activity) | MRSA (C)
PF-350: peptide having multiple activities (LAVILRAIVY; Peptide with targeting and/or antimicrobial activity) | MRSA (C)
PF-623: peptide having multiple activities (VLFAVYLGALDWLFSWLTQKM; Peptide with targeting and/or antimicrobial activity) | MRSA (D)
PF-454: peptide having multiple activities (chain 1 MSVFVPVTNIFMFIMSPIFNVNLLHFKVYI; chain 2 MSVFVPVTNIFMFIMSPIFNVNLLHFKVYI; Peptide with targeting and/or antimicrobial activity) | MRSA (C)
PF-578: peptide having multiple activities (chain 1 QKANLRIGFTYTSDSNVCNLTFALLGSK; chain 2 QKANLRIGFTYTSDSNVCNLTFALLGSK; Peptide with targeting and/or antimicrobial activity) | MRSA (C)
